- System: HepG2 cells
- EXPERIMENTAL DETAILS: cells
- TEST CONTEXT: Homo sapiens, HepG2, read-out: MMP assays efficacy (%) HepG2
TEST READOUT: Emax (%)
Write it as a number; the unit % goes unstated.

MOLECULE | UNIT OF MEASURE | Emax
Cc1cc(C)c(/C=C2\C(=O)Nc3ccccc32)[nH]1 | % | 115
NC(=O)Oc1ccc(Cc2ccccc2)cc1 | % | 112
C=CC[C@]1(O)CC[C@H]2[C@@H]3CCC4=CCCC[C@@H]4[C@H]3CC[C@@]21C | % | 97
Nc1ccc(N)c2c1C(=O)c1ccccc1C2=O | % | 81
C[C@H]1O[C@@H](O[C@H]2[C@@H](O)C[C@H](O[C@H]3[C@@H](O)C[C@H](O[C@H]4CC[C@@]5(C)[C@H](CC[C@@H]6[C@@H]5C[C@@H](O)[C@]5(C)[C@@H](C7=CC(=O)OC7)CC[C@]65O)C4)O[C@@H]3C)O[C@@H]2C)C[C@H](O)[C@@H]1O | % | 105
Nc1ccc(-c2ccc(N)cc2)cc1 | % | 79
CCC(C)(C)c1ccc(CC(C)CN2C[C@@H](C)O[C@@H](C)C2)cc1 (stereo partly shown) | % | 82
CCC(=O)c1c(O)cc(O)cc1O | % | 103

# returns recorded Emax (system: HepG2 cells) for CCc1oc2ccccc2c1C(=O)c1cc(I)c(O)c(I)c1
97

Please answer likewise for CCOCn1c(-c2ccc(Cl)cc2)c(C#N)c(Br)c1C(F)(F)F
109

And for Oc1ccc2ccccc2c1 ?
81

Same read-out for C[C@@H]1O[C@@H](O[C@H]2C[C@@H](O)[C@]3(CO)[C@H]4[C@H](O)C[C@]5(C)[C@@H](C6=CC(=O)OC6)CC[C@]5(O)[C@@H]4CC[C@]3(O)C2)[C@H](O)[C@H](O)[C@H]1O ?
94

Then what about the molecule C[C@@H]1C[C@H]2[C@@H]3CCC4=CC(=O)C=C[C@]4(C)[C@@]3(Cl)[C@@H](O)C[C@]2(C)[C@@]1(OC(=O)c1ccco1)C(=O)CCl [Mometasone furoate] ?
71

# repeat for CCCCCOC(=O)c1ccc(O)cc1
114

Similarly, c1ccc(CCCc2ccncc2)cc1 ?
46

Try the molecule Oc1cc(Cl)cc(Cl)c1
113

// query: CCN(CC)C(=O)[C@@H]1C=C2c3cccc4[nH]cc(c34)C[C@H]2N(C)C1 [Lysergide]
48

Here is the next molecule: Cc1cc(/C=C/c2ccc3cc(N(C)C)ccc3[n+]2C)c(C)n1-c1ccccc1 [Pyrvinium pamoate]
91

Further, for C=C1/C(=C\C=C2/CCC[C@]3(C)[C@@H]([C@H](C)CCCC(C)(C)O)CC[C@@H]23)C[C@@H](O)C[C@@H]1O ?
75

# repeat for BrC1CCC(Br)C(Br)CCC(Br)C(Br)CCC1Br (stereo not shown)
105

Also, C[C@]12O[C@H](C[C@]1(O)CO)n1c3ccccc3c3c4c(c5c6ccccc6n2c5c31)CNC4=O please.
100

Same lookup for CCOC1O[C@H]([C@@H](COCc2ccccc2)OCc2ccccc2)[C@H](OCc2ccccc2)[C@H]1O (stereo partly shown) [Tribenoside] , please.
61

Same question for ClC1=C(Cl)C2(Cl)C3C(Cl)C=CC3C1(Cl)C2(Cl)Cl (stereo not shown) please.
87

Can you check Oc1c2ccccc2c2c3c(cccc13)N=N2 next?
105

Please give the result for C[C@@]1(c2ccc(Oc3ccccc3)cc2)OC(=O)N(Nc2ccccc2)C1=O (racemic) too.
107

Follow-up item: Cc1cc(C(F)(C(F)(F)F)C(F)(F)F)ccc1NC(=O)c1cccc(I)c1C(=O)NC(C)(C)CS(C)(=O)=O [Flubendiamide]
94

Try this molecule next: Cc1c(C(=O)NN2CCCCC2)nn(-c2ccc(Cl)cc2Cl)c1-c1ccc(Cl)cc1
73

What do you get for COC(=O)[C@]12CCC(C)(C)C[C@H]1[C@H]1C(=O)C=C3[C@@]4(C)C=C(C#N)C(=O)C(C)(C)[C@@H]4CC[C@@]3(C)[C@]1(C)CC2 ?
122

From: paper PMC6112376
